Data provenance is PubChem BioAssay (NCI).

system: ACHN renal; assay: NCI tumour cell line growth inhibition, 48 h
Reported TGI values for the following molecules.

CC(=Nc1ccncc1)C(C)=Nc1ccncc1 = 27.5 µM

Problem: State, in one line, measured TGI of O=S1(=O)c2ccccc2NC(=S)CC1c1ccccc1 (stereo unspecified)
Solution: > 100 µM

Problem: State, in one line, measured TGI of `COC(=O)c1nc(N)[nH]c(=O)c1CCCCCc1c(C(=O)OC)nc(N)[nH]c1=O`
Solution: > 50 µM

Problem: State, in one line, measured TGI of `Cn1nc(S(N)(=O)=O)s/c1=N/C(N)=S`
Solution: > 100 µM

Problem: State, in one line, measured TGI of `CC1(COS(=O)(=O)OCC2(C)COS(=O)(=O)OC2)COS(=O)(=O)OC1`
Solution: > 74 µM

Problem: State, in one line, measured TGI of `CCOC(=O)c1cc(/C=C/C(C)=C/C(=O)OC)n(C)c1C`
Solution: > 100 µM

Problem: State, in one line, measured TGI of `CSc1ccc(/C=C2\C=C(CC(=O)NCc3ccc(C(=O)c4ccccc4)cc3)c3cc(F)ccc32)cc1`
Solution: 12.3 µM

Problem: State, in one line, measured TGI of O=C1NC2(CN3CCC2CC3)C(=O)N1CN(Cc1ccccc1)c1ccccc1 (stereo unspecified)
Solution: > 100 µM

Problem: State, in one line, measured TGI of `CN(C)CCCOCCn1c2c(c3ccccc31)CCCC2`
Solution: 29 µM

Problem: State, in one line, measured TGI of `Cc1ccc(C(=O)/C(C#N)=C/Nc2c(C)n(C)n(-c3ccccc3)c2=O)cc1`
Solution: > 100 µM

Problem: State, in one line, measured TGI of `[N-]=[N+]=Nc1ccc(CNc2cc(=O)[nH]c(=O)[nH]2)cc1`
Solution: > 100 µM

Problem: State, in one line, measured TGI of Cc1ccc(N=Nc2c(C)c(C#N)c(=S)n(C3OC(CO)C(O)C(O)C3O)c2-c2ccccc2)cc1 (stereo unspecified)
Solution: > 100 µM
